Tested on: NCI-H226 lung
Assay: NCI-60 one-dose screen, 48 h
Details: 10 µM unless noted
Compounds without any hit were thinned out: in the full panel of roughly 83,000, 20% have a hit. Calls of active or inactive are those of the source. The calls were made as follows: active = growth percent below 10; inactive = the rest.
// allowed return values: 1 (active), 0 (inactive)

Lab log entry: `COc1ccc(-c2cn(-c3ccc(Cl)cc3)c(SCC(=O)c3ccc([N+](=O)[O-])cc3)n2)cc1` — outcome as called in the assay?
0

Lab log entry: `Cc1ccc(O)c(NC(=O)c2ccc(CNc3ccnc(C(F)(F)F)c3)cc2)c1` — outcome as called in the assay?
0

Lab log entry: `O=C1NC(=O)c2c1c1c3ccccc3[nH]c1c1oc3ccc(F)cc3c21` — outcome as called in the assay?
0

Lab log entry: `O=C1/C(=C/c2ccc(Br)cc2)COc2ccc(O)c(O)c21` — outcome as called in the assay?
0

Lab log entry: `C#Cc1cccc(Oc2ccc(NC(=O)CCl)cc2)c1` — outcome as called in the assay?
0

Lab log entry: CC1(C)O[C@H]2OC3CCC(=O)CC3(O)[C@H]2O1 (stereo partly specified) — outcome as called in the assay?
0

Lab log entry: `C[C@@H]1CC[C@@]2(OC1)O[C@H]1C[C@H]3[C@@H]4CC=C5C[C@@H](O[C@@H]6O[C@H](CO)[C@@H](O[C@@H]7O[C@@H](CO)[C@H](O)[C@H]7O)[C@H](O)[C@H]6O[C@@H]6O[C@@H](C)[C@H](O)[C@@H](O)[C@H]6O)CC[C@]5(C)[C@H]4CC[C@]3(C)[C@H]1[C@@H]2C` — outcome as called in the assay?
1

Lab log entry: COc1ccc(C2C3=C(COC3=O)N(CCO)c3cc4c(cc32)OCCO4)cc1OC (stereo unspecified) — outcome as called in the assay?
0

Lab log entry: `Cc1ccccc1CNc1c2ccccc2nc2ccccc12` — outcome as called in the assay?
0

Lab log entry: `Cc1ccc(Nc2nc(-c3ccc(F)cc3)c(C#N)c(=O)n2C)cc1` — outcome as called in the assay?
0

Lab log entry: `N#Cc1nc2c(S(=O)(=O)c3ccccc3)c(N)n(Cc3cccnc3)c2nc1C#N` — outcome as called in the assay?
0

Lab log entry: `COC(=O)C1=Nc2ccc(F)cc2/C1=C\c1sc(Nc2ccc(O)cc2)nc1O` — outcome as called in the assay?
0

Lab log entry: `COc1ccccc1NC(=O)c1ccc(/C=C/C(=O)c2nccn2C)cc1` — outcome as called in the assay?
0

Lab log entry: `O=C(O)CCCn1c(SCc2c(Cl)cccc2Cl)nc2ccsc2c1=O` — outcome as called in the assay?
0

Lab log entry: CO[C@H](C(=O)[C@@H](O)[C@@H](C)O)[C@@H]1Cc2cc3cc(O[C@H]4C[C@@H](O[C@H]5C[C@@H](O)[C@H](O)C(C)O5)[C@H](O)C(C)O4)c(C)c(O)c3c(O)c2C(=O)[C@H]1O[C@H]1C[C@@H](O[C@H]2C[C@@H](O[C@H]3C[C@@H](OC)[C@H](O)C(C)O3)[C@@H](O)C(C)O2)C(O)(O)C(C)O1 (stereo partly specified) — outcome as called in the assay?
1

Lab log entry: `COC(=O)c1c2c(c(C)[n+]([O-])c1C)C(=O)C=CC2=O` — outcome as called in the assay?
1

Lab log entry: `O=C1NC(=Nc2ccc(O)cc2)S/C1=C\c1cccs1` — outcome as called in the assay?
0

Lab log entry: `Cc1cc(C)cc(Nc2ccc([N+](=O)[O-])c(NCCN3CCOCC3)n2)c1` — outcome as called in the assay?
0

Lab log entry: COC(=O)C1=C(C(=O)Nc2cccnc2)C2OC1(C(Cc1ccccc1)Oc1ccccc1)C1OC21 (stereo unspecified) — outcome as called in the assay?
0

Lab log entry: `c1ccc(CCc2ccccc2-c2cc(-c3ccccc3)on2)cc1` — outcome as called in the assay?
0

Lab log entry: CC1O[C@@H]2C[C@@](O)([C@H]1O)n1c3ccccc3c3c4c(c5c6ccccc6n2c5c31)C(=O)NC4=O (stereo partly specified) — outcome as called in the assay?
0

Lab log entry: `NC(=O)c1c(NC(=O)c2ccc(Cl)cc2)sc2c1CCC(=O)C2` — outcome as called in the assay?
0

Lab log entry: `Cn1cc(-c2nc(-c3c[nH]c4ccncc34)cs2)c2cc(Br)ccc21` — outcome as called in the assay?
1

Lab log entry: `Cc1c(Cl)cccc1C(=O)Nc1nc2c(s1)CN(C(=O)Nc1cccc(C(F)(F)F)c1)CC2` — outcome as called in the assay?
0

Lab log entry: O=C(/C=C/C12c3ccccc3C(c3ccccc31)C1C(=O)NC(=O)C12)c1ccccn1 (stereo unspecified) — outcome as called in the assay?
0

Lab log entry: COc1ccc(NC(=O)c2sc3nc(C)c(C(O)c4ccccc4)cc3c2N)cc1 (stereo unspecified) — outcome as called in the assay?
0

Lab log entry: CC12CCC(/C(=C/NNc3ccc([N+](=O)[O-])cc3[N+](=O)[O-])C1=O)C2(C)C (stereo unspecified) — outcome as called in the assay?
0

Lab log entry: `Nc1ccc([N+](=O)[O-])cc1N=C/C=C/c1ccccc1` — outcome as called in the assay?
0

Lab log entry: `N#Cc1c(-c2ccccc2)c(C#N)c2c(C#N)c(N)nn2c1N` — outcome as called in the assay?
0

Lab log entry: `Fc1ccc(CNc2c3ccccc3nc3ccccc23)cc1` — outcome as called in the assay?
0

Lab log entry: `O=C1N[C@@H]2[C@@H](O)[C@@H](O)[C@H](O)C[C@H]2c2cc3c(c(O)c21)OCCO3` — outcome as called in the assay?
1
